Values from paper PMC10396310

target_desc: succinate receptor 1 (SUCNR1; GPR91) (Mus musculus, UniProt Q99MT6)
Construct: native receptor in tracheal TRPM5+ brush cells (ex vivo whole mount)
Sequence (Q99MT6 whole entry): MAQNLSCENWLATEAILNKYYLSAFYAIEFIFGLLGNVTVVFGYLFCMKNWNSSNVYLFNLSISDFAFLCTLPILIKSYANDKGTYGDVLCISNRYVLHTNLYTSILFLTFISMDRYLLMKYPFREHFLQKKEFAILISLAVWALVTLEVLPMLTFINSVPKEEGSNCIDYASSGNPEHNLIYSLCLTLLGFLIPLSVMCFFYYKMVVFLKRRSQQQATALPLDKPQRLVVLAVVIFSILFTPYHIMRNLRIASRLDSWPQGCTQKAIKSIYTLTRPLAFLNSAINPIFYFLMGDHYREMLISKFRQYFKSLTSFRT
experiment_summary: Ca2+ imaging (GCaMP6f) concentration-response in brush cells; Ca2+ wave lost in Sucnr1-/- mice
pEC50: −log10 of the molar value.
readout_label: pEC50

[[record]]
compound = "O=C(O)CCC(=O)O [succinate]"
observed_measurement = 3.47

